Every entry's value here was drawn from ChEMBL document CHEMBL6078623.

target: GTPase KRas (Homo sapiens, UniProt P01116, G12D); experiment: Binding affinity to KRAS G12D mutant (unknown origin) assessed as dissociation constant by SPR analysis
Sequence (P01116 whole entry G12D): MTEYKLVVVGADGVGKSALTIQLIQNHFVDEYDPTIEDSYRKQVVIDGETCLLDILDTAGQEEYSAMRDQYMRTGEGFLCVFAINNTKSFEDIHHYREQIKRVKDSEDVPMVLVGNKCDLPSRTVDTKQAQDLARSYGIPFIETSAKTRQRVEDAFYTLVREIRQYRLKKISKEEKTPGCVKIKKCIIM
Endpoint Label: Kd (nM)
Give just the numeric value; nM need not be written.

Value (Kd, GTPase KRas (Homo sapiens, UniProt P01116, G12D)) for record "COc1nc(-c2cccc3c2OCCO3)ccc1Nc1ccc(CN(C)C)cc1" = 51
